Hey, just so you know, these numbers are from PubChem BioAssay.

Experiment: small-molecule microarray binders of probe aDKK1, primary screen, biochemical, biotinylated probe, 635/667 nm fluorescence (AID 1099);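 further: score merges 667nm spot fluorescence with signal to noise across triplicate slides; reference of the scale not given here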
Conditions: higher = more signal
Reported values of composite z-score for individual entries

The following compounds have reported results that may help.
[N-]=[N+]=NCc1ccccc1[C@H]1OC(c2ccc(OCCCO)cc2)=N[C@@]1(Cc1ccccc1N=[N+]=[N-])C(=O)O ... 1.08
CCCCC(=C=CC[C@@H](O)c1ccc(OCCO)cc1)CCO ... -0.0198
CC(CO)N1C(=O)[C@@H]2[C@H]3C(=O)OCC=C[C@H]3OC23C=CCN(c2ccc4ccccc4c2)C(=O)[C@@H]13 (some centres not stated) ... -0.0682
COc1ccc([Si](C)(C)[C@@H]2[C@@H](CC(=O)N3CCC[C@H]3CO)O[C@]3(C(=O)N(Cc4cccc(N5C(=O)c6cccc7cccc5c67)c4)c4ccccc43)[C@H]2C)cc1 ... -0.164

Documented composite z-score of COc1c(C)cc(-c2cc3c(c(CCc4ccccc4)n2)[Si](C(C)C)(C(C)C)O[C@H]3c2ccccc2)cc1C : -0.137

# composite z-score of CCCC[C@@H](O)C1=C(C)Cn2c(=O)n(-c3ccccc3)c(=O)n2[C@H]1CO = -0.526

Sure, the documented composite z-score for COc1ccc([Si](C)(C)[C@@H]2[C@@H](CC(=O)N(CCO)Cc3ccccc3)O[C@]3(C(=O)N(Cc4cccc(I)c4)c4ccccc43)[C@H]2C)cc1 is -0.0248
